- Experiment: Bi-directional Caco-2 permeability
- Type: in vitro ADME
- Test Parameters: human, Caco-2, Caco-2, BA direction; read-out: BA Recovery %
Result Type: recovery at 90 min (%)
Number in %, nothing else.

- Molecule: "CC(C)NC(=O)O[C@H]1CC[C@H](c2ncc(-c3ccc(NC(=O)OC(C)C)cc3S(=O)(=O)NC(C)(C)C)s2)CC1 [Ex. 20]"
  recovery at 90 min (%): 96.6
- Molecule: "CC(C)OC(=O)Nc1ccc(-c2cnc([C@H]3CC[C@H](NC(=O)OC4CCCC4)CC3)s2)c(S(=O)(=O)NC(C)(C)C)c1 [Ex. 7]"
  recovery at 90 min (%): 92

[in] Reported recovery at 90 min, molecule CC(C)OC(=O)N[C@H]1CC[C@H](c2nc(F)c(-c3ccc(NC(=O)NCc4ccccc4)cc3S(=O)(=O)NC(C)(C)C)s2)CC1 [Ex. 57] : ____
[out] 86.8

[in] # input molecule: CC(C)OC(=O)Nc1ccc(-c2cnc([C@@H]3CC[C@@H](NC(=O)OC(C)C)CO3)s2)c(S(=O)(=O)NC(C)(C)C)c1 [Ex. 60A] ; wanted: its recovery at 90 min
[out] 86

[in] Value lookup for recovery at 90 min; key = C[C@H](NC(=O)Nc1ccc(-c2cnc(C3CCC(NC(=O)OC4COC4)CC3)s2)c(S(=O)(=O)NC(C)(C)C)c1)c1ccccc1F (stereo partly drawn) [Ex. 55]
[out] 83.8

[in] # query: recovery at 90 min of entry CC(C)OC(=O)N[C@H]1CC[C@H](c2ncc(-c3ccc(NC(=O)NCc4ncccc4F)cc3S(=O)(=O)NC(C)(C)C)s2)CC1 [Ex. 31]
[out] 92.3
